Value source: patent US8017612B2

# target.under.test: HCV polymerase (NS5B) type 1b (Hepatitis C virus genotype 1b, UniProt P26663)
# Construct: a region encoding NS5B (J Virol 1991 March, 65(3), 1105-13, 544 amino acids after deletion of 47 amino acids on the C-terminal); 6xHis (C); made in house; host or cells: Escherichia coli
# Sequence (P26663 2420-2963): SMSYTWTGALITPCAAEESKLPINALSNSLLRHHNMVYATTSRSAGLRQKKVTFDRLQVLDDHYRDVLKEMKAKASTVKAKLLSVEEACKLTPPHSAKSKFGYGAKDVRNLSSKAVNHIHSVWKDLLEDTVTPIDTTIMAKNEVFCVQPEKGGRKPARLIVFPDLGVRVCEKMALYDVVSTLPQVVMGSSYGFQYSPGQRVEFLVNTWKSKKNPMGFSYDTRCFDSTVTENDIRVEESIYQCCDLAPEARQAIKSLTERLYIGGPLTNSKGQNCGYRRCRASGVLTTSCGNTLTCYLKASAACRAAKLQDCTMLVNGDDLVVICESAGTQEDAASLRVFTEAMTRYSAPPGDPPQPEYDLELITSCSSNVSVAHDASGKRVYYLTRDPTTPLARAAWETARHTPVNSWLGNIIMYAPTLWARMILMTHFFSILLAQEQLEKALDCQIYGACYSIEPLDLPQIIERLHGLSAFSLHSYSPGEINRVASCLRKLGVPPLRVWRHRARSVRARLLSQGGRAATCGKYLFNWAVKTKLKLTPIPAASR
# assay.summary: Assay of enzyme (HCV polymerase) inhibitory activity, type 1b enzyme
# Format: biochemical, HCV BK strain (type 1b)
# settings: HCV polymerase inhibitory activity IC50, 1b, type 1b enzyme
measured.property: IC50

Challenge: Any idea what its IC50 is? The compound is CCC(F)(F)c1ccc(CNC(=O)[C@H]2CN(c3cnc4cncnc4n3)CCN2S(=O)(=O)c2ccc(-c3ccccc3O)cc2)cc1
Response given: < 100 nM

Challenge: Any idea what its IC50 is? The compound is CCc1ncc2sc(N3CCN(S(=O)(=O)c4ccc(OC(F)(F)F)cc4)[C@@H](C(=O)NCc4ccc(OC(F)(F)F)cc4)C3)nc2n1
Response given: < 100 nM

Challenge: Any idea what its IC50 is? The compound is CCCc1ccc(CNC(=O)[C@H]2CN(c3cnc4cncnc4n3)CCN2S(=O)(=O)c2ccc(OC(F)(F)F)cc2)cn1
Response given: < 100 nM

Challenge: Any idea what its IC50 is? The compound is O=C(NCc1ccc(OC(F)(F)F)cc1)[C@H]1CN(c2cnc3cnccc3n2)CCN1S(=O)(=O)c1ccc(C(F)(F)F)cc1
Response given: < 100 nM

Challenge: Any idea what its IC50 is? The compound is CCCc1ccc(CNC(=O)[C@H]2CN(c3nc(C)c(C(O)C(=O)OCC)s3)CCN2S(=O)(=O)c2ccc(OC(F)(F)F)cc2)cc1 (stereo partly shown)
Response given: < 100 nM

Challenge: Any idea what its IC50 is? The compound is CCN(C)c1ccc(CNC(=O)[C@H]2CN(c3nc4cn[nH]c(=O)c4s3)CCN2S(=O)(=O)c2ccc(OC(F)(F)F)cc2)cc1
Response given: < 100 nM

Challenge: Any idea what its IC50 is? The compound is CCCc1ccc(CNC(=O)[C@H]2CN(c3cnc4cncnc4n3)CCN2S(=O)(=O)c2ccc(OC(F)(F)F)cc2)cc1N
Response given: < 100 nM

Challenge: Any idea what its IC50 is? The compound is Cc1cc(=O)nc2sc(N3CCN(S(=O)(=O)c4ccc(OC(F)(F)F)cc4)[C@@H](C(=O)NCc4ccc(OC(F)(F)F)cc4)C3)nn12
Response given: < 100 nM

Challenge: Any idea what its IC50 is? The compound is CC(C)(C)c1ccc(CNC(=O)[C@H]2CN(C(=O)/C=C/C(=O)O)CCN2S(=O)(=O)c2ccc(OC(F)(F)F)cc2)cc1
Response given: > 1000 nM

Challenge: Any idea what its IC50 is? The compound is O=C(NCc1ccc(OC(F)F)c(F)c1)[C@H]1CN(c2nc3nc(C4CC4)[nH]c(=O)c3s2)CCN1S(=O)(=O)c1ccc(OC(F)(F)F)cc1
Response given: < 100 nM

Challenge: Any idea what its IC50 is? The compound is O=C(NCc1ccc(OC(F)(F)F)cc1)[C@H]1CN(c2nc3nc(CC4CC4)ncc3s2)CCN1S(=O)(=O)c1ccc(OC(F)(F)F)cc1
Response given: < 100 nM

Challenge: Any idea what its IC50 is? The compound is CCC(F)(F)c1ccc(CNC(=O)[C@H]2CN(c3nc4c(=O)[nH]ncc4s3)CCN2S(=O)(=O)c2ccc(OC(F)(F)F)cc2)cc1
Response given: < 100 nM

Challenge: Any idea what its IC50 is? The compound is CCC(F)(F)c1ccc(CNC(=O)[C@H]2CN(c3cnc4c(Cl)cccc4n3)CCN2S(=O)(=O)c2ccc(OC(F)(F)F)cc2)cc1
Response given: < 100 nM

Challenge: Any idea what its IC50 is? The compound is CCc1ccc(S(=O)(=O)N2CCN(c3cnc4cncc(C(=O)O)c4n3)C[C@@H]2C(=O)NCc2ccc(C(C)(C)CC)cc2)cc1
Response given: < 100 nM

Challenge: Any idea what its IC50 is? The compound is CON(C)C(=O)c1ncc2sc(N3CCN(S(=O)(=O)c4ccc(OC(F)(F)F)cc4)[C@@H](C(=O)NCc4ccc(OC(F)(F)F)cc4)C3)nc2n1
Response given: < 100 nM

Challenge: Any idea what its IC50 is? The compound is COC(=O)c1cc(=O)nc2sc(N3CCN(S(=O)(=O)c4ccc(OC(F)(F)F)cc4)[C@@H](C(=O)NCc4ccc(OC(F)(F)F)cc4)C3)nn12
Response given: < 100 nM

Challenge: Any idea what its IC50 is? The compound is CCC(F)(F)c1ccc(CNC(=O)[C@H]2CN(c3cnc4cccnc4n3)CCN2S(=O)(=O)c2ccc(OC(F)(F)F)cc2)cc1
Response given: < 100 nM

Challenge: Any idea what its IC50 is? The compound is O=C(NCc1ccc(OC(F)F)cc1)[C@H]1CN(c2nc3nc(C4CC4)ncc3s2)CCN1S(=O)(=O)c1ccc(OC(F)(F)F)cc1
Response given: < 100 nM

Challenge: Any idea what its IC50 is? The compound is CCCN1CC=C(CNC(=O)[C@H]2CN(c3cnc4cncnc4n3)CCN2S(=O)(=O)c2ccc(OC(F)(F)F)cc2)CC1
Response given: 100 to 1000 nM

Challenge: Any idea what its IC50 is? The compound is CCCc1ccc(CNC(=O)[C@H]2CN(c3nc4c(C(=O)O)cccc4s3)CCN2S(=O)(=O)c2ccc(CC)cc2)cc1
Response given: < 100 nM

Challenge: Any idea what its IC50 is? The compound is Cc1ncc2ncc(N3CCN(S(=O)(=O)c4ccc(OC(F)(F)F)cc4)[C@@H](C(=O)NCc4ccc(OC(F)(F)F)cc4)C3)nc2n1
Response given: < 100 nM

Challenge: Any idea what its IC50 is? The compound is CCC(F)(F)c1ccc(CNC(=O)[C@H]2CN(C(=O)Cn3nnnc3N)CCN2S(=O)(=O)c2ccc(OC(F)(F)F)cc2)cc1
Response given: 100 to 1000 nM

Challenge: Any idea what its IC50 is? The compound is Cc1nn(C)c2nc(N3CCN(S(=O)(=O)c4ccc(OC(F)(F)F)cc4)[C@@H](C(=O)NCc4ccc(OC(F)(F)F)cc4)C3)sc12
Response given: < 100 nM

Challenge: Any idea what its IC50 is? The compound is CC(=O)N1CCN(S(=O)(=O)c2ccc(OC(F)(F)F)cc2)[C@@H](C(=O)NCCCc2ccc(O)cc2)C1
Response given: > 1000 nM

Challenge: Any idea what its IC50 is? The compound is O=C(NCc1ccc(OC(F)F)cc1)[C@H]1CN(c2nc3nc(C(F)(F)F)ncc3s2)CCN1S(=O)(=O)c1ccc(OC(F)F)cc1
Response given: < 100 nM
